- experimental target: Programmed cell death 1 ligand 1 (Homo sapiens, UniProt Q9NZQ7)
- Sequence (Q9NZQ7 whole entry): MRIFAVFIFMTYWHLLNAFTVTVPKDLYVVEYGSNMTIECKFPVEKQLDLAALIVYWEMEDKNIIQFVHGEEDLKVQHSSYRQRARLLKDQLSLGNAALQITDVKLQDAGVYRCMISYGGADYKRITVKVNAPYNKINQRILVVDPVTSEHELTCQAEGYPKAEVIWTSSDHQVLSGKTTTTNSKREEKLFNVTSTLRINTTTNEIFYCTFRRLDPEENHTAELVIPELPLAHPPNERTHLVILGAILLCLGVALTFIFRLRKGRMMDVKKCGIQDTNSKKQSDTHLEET
- test protocol: Inhibition of PDL1 (unknown origin)
readout: pEC50
Value format note: pEC50 is -log10 of concentration (mol/L); just state the number.

stdin: What value of pEC50 has been reported for the following molecule? C[C@@H](O)[C@H](NC(=O)N[C@@H](CC(N)=O)C(=O)NNC(=O)[C@@H](N)CO)C(=O)O
stdout: 7.52

###

- experimental target: Programmed cell death 1 ligand 2 (Homo sapiens, UniProt Q9BQ51)
- Sequence (Q9BQ51 whole entry): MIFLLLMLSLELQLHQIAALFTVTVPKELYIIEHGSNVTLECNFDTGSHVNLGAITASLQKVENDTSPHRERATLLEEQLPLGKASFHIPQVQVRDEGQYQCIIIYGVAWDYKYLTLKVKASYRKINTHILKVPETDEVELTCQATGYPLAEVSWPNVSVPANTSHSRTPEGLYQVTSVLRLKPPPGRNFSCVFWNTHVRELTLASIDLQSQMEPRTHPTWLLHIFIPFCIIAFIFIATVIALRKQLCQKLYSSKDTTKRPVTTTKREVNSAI
- test protocol: Inhibition of PDL2 (unknown origin)
readout: pEC50
Value format note: pEC50 is -log10 of concentration (mol/L); just state the number.

stdin: What value of pEC50 has been reported for the following compound? C[C@@H](O)[C@H](NC(=O)N[C@@H](CC(N)=O)C(=O)NNC(=O)[C@@H](N)CO)C(=O)O
stdout: 7.40
